Here, each record is paired with measured T/C data.
system: P388 leukemia ip, CD2F1 mice, survival T/C; assay: NCI In Vivo Anticancer Drug Screen. Data for tumor model P388 Leukemia (intraperitoneal) in CD2F1 (CDF1) mice; settings: endpoint: median survival time; dose: 50.0 mg/kg/injection; schedule: Q01DX005 (ip); vehicle: saline with Tween-80; higher = longer survival
Inconclusive results and toxic doses are left out.

>  <Molecule>
O=C1C(S(=O)(=O)O)=CC(=Nc2ccc(O)cc2)c2ccccc21

>  <Assay Result>
95 % of control

$$$$
>  <Molecule>
COc1ccc2c(c1N)CC[C@@H]1C2CC[C@]2(C)C(O)CCC12 (stereo not given in full)

>  <Assay Result>
104 % of control

$$$$
>  <Molecule>
CC1=CC2N(C=C1)C(c1ccc(Cl)cc1)=NON2c1cc(C)ccn1 (stereo not given)

>  <Assay Result>
92 % of control

$$$$
>  <Molecule>
O=C(O)c1c(Cl)c(Cl)c(Cl)c(Cl)c1-c1c2cc(I)c(=O)c(I)c-2oc2c(I)c(O)c(I)cc12

>  <Assay Result>
92 % of control

$$$$
>  <Molecule>
CCSC(C(OC(C)=O)C(OC(C)=O)C(OC(C)=O)C(COC(C)=O)OC(C)=O)n1cnc2c(Cl)ncnc21 (stereo not given)

>  <Assay Result>
100 % of control

$$$$

Next item in the queue.
# lookup: T/C of "Cc1ccc2c(O)c3c(cc2c1O)C(=O)c1ccccc1C3=O" 100 % of control
